Test system: VDR homodimer (NR concentration 270 nM)
Test Protocol: PBM binding z-score (relative to random genomic background probes); higher = stronger binding; sequences stand for … in GC…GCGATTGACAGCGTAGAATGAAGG
# label = 1 if PBM binding z-score >= 1 else 0

Would you please look over these solved cases?
>>> print(df.to_string())
                       chain_sequence  class_label
0  GCTTACGGGTCAAAGGTTATAGCCTGAATAGAAT            1
1  AATACAGGGTCATCGTAGCCCAGAGTACGCACAG            1
2  TCTCGGAGGACACGACAGGTCAGAGCTCGACATC            0

Consider the record given below.
Exercise: Given CTCTAAAGGTCGGTTGAGGTGAGTATACGGATAA , state whether its PBM binding z-score is at least 1.
Solution: 0
